System: Fibroblast
Experiment: Multiplex assay against human fibroblast
Assay type: toxicity, cell-based
Settings: 24 h, 10 µM, compound concentration 10 uM, replicate 1
property_measured: Population Healthy Nuclei (%)
// units = %; emit number, no label

Ask | Given the compound N#Cc1c(Oc2cccc(OS(=O)(=O)CCCC(F)(F)F)c2)cccc1C(F)(F)F , what is its reported Population Healthy Nuclei (%)?
Reply | 59

Ask | Given the compound CC[C@@H](C)Nc1nc(C)nc2c(-c3ccc(OC)nc3C)c(C)nn12 , what is its reported Population Healthy Nuclei (%)?
Reply | 56

Ask | Given the compound Br.CS(=O)(=O)Nc1c(O)ccc2c1CCCC2C1=NCCN1 (stereo unspecified) , what is its reported Population Healthy Nuclei (%)?
Reply | 60

Ask | Given the compound O=C(CCCc1ccccc1)Nc1nc2ccccc2c(=O)s1 , what is its reported Population Healthy Nuclei (%)?
Reply | 60

Ask | Given the compound CC(C)c1noc(N2CCC(COc3ccc(-c4ccc(S(C)(=O)=O)cc4)nc3)CC2)n1 , what is its reported Population Healthy Nuclei (%)?
Reply | 67

Ask | Given the compound CCCCC(=O)N(Cc1ccc(-c2ccccc2-c2nnn[nH]2)cc1)[C@H](C(=O)O)C(C)C , what is its reported Population Healthy Nuclei (%)?
Reply | 56

====

Tested on: Fibroblast
Test: Multiplex assay against human fibroblast
Type: toxicity, cell-based
Details: 24 h, 10 µM, compound concentration 10 uM, replicate 2
Would you mind telling me the reported Population Tubulin-Different-Phenotype (%) of each entry?
// units = %; emit number, no label

Ask | Given the compound Cl.NCCc1ccc(O)c(O)c1 [DOPAMINE HYDROCHLORIDE] , what is its reported Population Tubulin-Different-Phenotype (%)?
Reply | 56

Ask | Given the compound N#Cc1cc(F)cc(-c2nc(-c3ccc(F)cn3)no2)c1 , what is its reported Population Tubulin-Different-Phenotype (%)?
Reply | 41

Ask | Given the compound N#Cc1c(Oc2cccc(OS(=O)(=O)CCCC(F)(F)F)c2)cccc1C(F)(F)F , what is its reported Population Tubulin-Different-Phenotype (%)?
Reply | 77

====

Tested on: Fibroblast
Experiment: Multiplex assay against human fibroblast
Type: toxicity, cell-based
Conditions: 24 h, 1 µM, compound concentration 1 uM, replicate 2
Would you mind telling me the reported Population Normal (%) of each entry?
// units = %; emit number, no label

Ask | Given the molecule NCCc1cn(S(=O)(=O)c2c(Cl)nc3sccn23)c2ccccc12.O=C(O)C(=O)O , what is its reported Population Normal (%)?
Reply | 95

Ask | Given the molecule Cc1cccc(NC(=O)CN2CCC(c3ccccn3)CC2)c1.Cl.Cl , what is its reported Population Normal (%)?
Reply | 95

Ask | Given the molecule Cc1noc(-c2ccc(-c3ccc(CC(=O)O)cc3)cc2)c1NC(=O)O[C@H](C)c1ccccc1Cl , what is its reported Population Normal (%)?
Reply | 97

====

Tested on: HEK-293T
Assay: Multiplex assay against HEK293T
Format: toxicity, cell-based
Details: human, 48 h, 1 µM, compound concentration 1 uM, replicate 1
property_measured: Population Pyknosed Nuclei (%)
// units = %; emit number, no label

Ask | Given the compound CCCOc1ccc2[nH]cc(C3=CCNCC3)c2n1.Cl , what is its reported Population Pyknosed Nuclei (%)?
Reply | 6

Ask | Given the compound CCCCCC(O)/C=C/[C@H]1C(=O)CC(O)C1C/C=C\CCCC(=O)O (some centres undefined) , what is its reported Population Pyknosed Nuclei (%)?
Reply | 7

Ask | Given the compound CC(/C=C1\SC(=S)N(CCCC(=O)Nc2ccc(C(=O)O)c(O)c2)C1=O)=C\c1ccccc1 , what is its reported Population Pyknosed Nuclei (%)?
Reply | 7

Ask | Given the compound N#Cc1cc(F)cc(-c2nc(-c3ccc(F)cn3)no2)c1 , what is its reported Population Pyknosed Nuclei (%)?
Reply | 6

====

Test system: U2OS
Test: Multiplex assay against U2OS
Assay type: toxicity, cell-based
Details: human, 24 h, 10 µM, compound concentration 10 uM, replicate 1
property_measured: Population Mitochondria Different-Phenotype (%)
// units = %; emit number, no label

Ask | Given the compound CC(C)c1noc(N2CCC(COc3ccc(-c4ccc(S(C)(=O)=O)cc4)nc3)CC2)n1 [GSK-1292263] , what is its reported Population Mitochondria Different-Phenotype (%)?
Reply | 3

Ask | Given the compound COC[C@@H](c1ccc(C(F)(F)F)cc1)N1CCN(C2(C)CCN(C(=O)c3c(C)ncnc3C)CC2)C[C@@H]1C.O=C(O)/C=C\C(=O)O [VICRIVIROC MALEATE] , what is its reported Population Mitochondria Different-Phenotype (%)?
Reply | 3

Ask | Given the compound Cc1cnc(-c2cc(N3CCN(C(=O)CCS(C)(=O)=O)CC3)ncc2Cl)c(C)c1 , what is its reported Population Mitochondria Different-Phenotype (%)?
Reply | 2

Ask | Given the compound CC(/C=C1\SC(=S)N(CCCC(=O)Nc2ccc(C(=O)O)c(O)c2)C1=O)=C\c1ccccc1 , what is its reported Population Mitochondria Different-Phenotype (%)?
Reply | 3

Ask | Given the compound N#Cc1c(Oc2cccc(OS(=O)(=O)CCCC(F)(F)F)c2)cccc1C(F)(F)F , what is its reported Population Mitochondria Different-Phenotype (%)?
Reply | 8

Ask | Given the compound CC(C)COc1ccc(CNC(=O)N(Cc2ccc(F)cc2)C2CCN(C)CC2)cc1 [PIMAVANSERIN] , what is its reported Population Mitochondria Different-Phenotype (%)?
Reply | 67

Ask | Given the compound C[C@H](N)COC(=O)[C@@H](CCCCN)NC(=O)Cc1c(-c2ccc3ccccc3c2)[nH]c2c1ccc1ccccc12 , what is its reported Population Mitochondria Different-Phenotype (%)?
Reply | 1

Ask | Given the compound CC(C)(C)c1cc(NC(=O)Nc2ccc(-c3cn4c(n3)sc3cc(OCCN5CCOCC5)ccc34)cc2)no1 [QUIZARTINIB] , what is its reported Population Mitochondria Different-Phenotype (%)?
Reply | 38

Ask | Given the compound CN1CCN(c2cc(-c3ccccc3)nc(N)n2)CC1 , what is its reported Population Mitochondria Different-Phenotype (%)?
Reply | 3

====

System: Fibroblast
Test: Multiplex assay against human fibroblast
Assay type: toxicity, cell-based
Conditions: 12 h, 1 µM, compound concentration 1 uM, replicate 1
Would you mind telling me the reported Population Hoechst High Intensity Objects (%) of each entry?
// units = %; emit number, no label

Ask | Given the compound CCCCC(=O)N(Cc1ccc(-c2ccccc2-c2nnn[nH]2)cc1)[C@H](C(=O)O)C(C)C , what is its reported Population Hoechst High Intensity Objects (%)?
Reply | 4

Ask | Given the compound C[C@H](N)COC(=O)[C@@H](CCCCN)NC(=O)Cc1c(-c2ccc3ccccc3c2)[nH]c2c1ccc1ccccc12 , what is its reported Population Hoechst High Intensity Objects (%)?
Reply | 1

Ask | Given the compound Cc1c(CC(=O)O)c2cccnc2n1Cc1ccc(S(C)(=O)=O)cc1C(F)(F)F [FEVIPIPRANT] , what is its reported Population Hoechst High Intensity Objects (%)?
Reply | 3

Ask | Given the compound Cc1onc(-c2ccccc2Cl)c1C(=O)N(C)c1ccc(Cl)cc1 , what is its reported Population Hoechst High Intensity Objects (%)?
Reply | 7

Ask | Given the compound COC[C@@H](c1ccc(C(F)(F)F)cc1)N1CCN(C2(C)CCN(C(=O)c3c(C)ncnc3C)CC2)C[C@@H]1C.O=C(O)/C=C\C(=O)O [VICRIVIROC MALEATE] , what is its reported Population Hoechst High Intensity Objects (%)?
Reply | 4

Ask | Given the compound Cl.NCCc1ccc(O)c(O)c1 [DOPAMINE HYDROCHLORIDE] , what is its reported Population Hoechst High Intensity Objects (%)?
Reply | 1

====

Would you mind telling me the reported Population Fragmented Nuclei (%) of each entry?
Tested on: U2OS
Assay: Multiplex assay against U2OS
Format: toxicity, cell-based
Settings: human, 24 h, 10 µM, compound concentration 10 uM, replicate 1
// units = %; emit number, no label

Ask | Given the compound N#Cc1cc(F)cc(-c2nc(-c3ccc(F)cn3)no2)c1 , what is its reported Population Fragmented Nuclei (%)?
Reply | 32

Ask | Given the compound CC[C@@H](C)Nc1nc(C)nc2c(-c3ccc(OC)nc3C)c(C)nn12 [PEXACERFONT] , what is its reported Population Fragmented Nuclei (%)?
Reply | 21

Ask | Given the compound CC(=O)Nc1cccc2c1c(Sc1ccc(Cl)cc1)c(C)n2CC(=O)O [AZD1981] , what is its reported Population Fragmented Nuclei (%)?
Reply | 23

Ask | Given the compound Cc1cnc(-c2cc(N3CCN(C(=O)CCS(C)(=O)=O)CC3)ncc2Cl)c(C)c1 , what is its reported Population Fragmented Nuclei (%)?
Reply | 20

Ask | Given the compound Cl.N=C(N)NC(=O)Cc1c(Cl)cccc1Cl [GUANFACINE HYDROCHLORIDE] , what is its reported Population Fragmented Nuclei (%)?
Reply | 25

Ask | Given the compound CCCCC(=O)N(Cc1ccc(-c2ccccc2-c2nnn[nH]2)cc1)[C@H](C(=O)O)C(C)C , what is its reported Population Fragmented Nuclei (%)?
Reply | 31

Ask | Given the compound O=C(NCCN1CCC(n2c(=O)[nH]c3cc(Cl)ccc32)CC1)c1ccc(F)cc1 [HALOPEMIDE] , what is its reported Population Fragmented Nuclei (%)?
Reply | 17

Ask | Given the compound Cc1noc(-c2ccc(-c3ccc(CC(=O)O)cc3)cc2)c1NC(=O)O[C@H](C)c1ccccc1Cl , what is its reported Population Fragmented Nuclei (%)?
Reply | 24

Ask | Given the compound Cc1sc2c(c1C)C(c1ccc(Cl)cc1)=N[C@@H](CC(=O)NCCCCCCCCNC(=O)COc1cccc3c1C(=O)N(C1CCC(=O)NC1=O)C3=O)c1nnc(C)n1-2 (some centres not stated) , what is its reported Population Fragmented Nuclei (%)?
Reply | 34

Ask | Given the compound CC(C)c1noc(N2CCC(COc3ccc(-c4ccc(S(C)(=O)=O)cc4)nc3)CC2)n1 [GSK-1292263] , what is its reported Population Fragmented Nuclei (%)?
Reply | 25

Ask | Given the compound O=C(CCCc1ccccc1)Nc1nc2ccccc2c(=O)s1 , what is its reported Population Fragmented Nuclei (%)?
Reply | 25

Ask | Given the compound Cl.NCCc1ccc(O)c(O)c1 [DOPAMINE HYDROCHLORIDE] , what is its reported Population Fragmented Nuclei (%)?
Reply | 18

Ask | Given the compound O=C1[C@H](Cc2ccc(O)cc2)N2C(=O)CCN(C(=O)NCc3ccccc3)[C@H]2CN1Cc1cccc2ccccc12 , what is its reported Population Fragmented Nuclei (%)?
Reply | 34

Ask | Given the compound Cc1onc(-c2ccccc2Cl)c1C(=O)N(C)c1ccc(Cl)cc1 , what is its reported Population Fragmented Nuclei (%)?
Reply | 26

Ask | Given the compound N#Cc1c(Oc2cccc(OS(=O)(=O)CCCC(F)(F)F)c2)cccc1C(F)(F)F , what is its reported Population Fragmented Nuclei (%)?
Reply | 26

Ask | Given the compound CC(/C=C1\SC(=S)N(CCCC(=O)Nc2ccc(C(=O)O)c(O)c2)C1=O)=C\c1ccccc1 , what is its reported Population Fragmented Nuclei (%)?
Reply | 26

Ask | Given the compound Cc1cccc(NC(=O)CN2CCC(c3ccccn3)CC2)c1.Cl.Cl , what is its reported Population Fragmented Nuclei (%)?
Reply | 32

Ask | Given the compound COc1ccccc1N1CCN(C[C@@H](C(=O)NC(C)(C)C)c2ccccc2)CC1.Cl.Cl , what is its reported Population Fragmented Nuclei (%)?
Reply | 38

Ask | Given the compound CN1CCN(c2cc(-c3ccccc3)nc(N)n2)CC1 , what is its reported Population Fragmented Nuclei (%)?
Reply | 23

Ask | Given the compound Cc1c(CC(=O)O)c2cccnc2n1Cc1ccc(S(C)(=O)=O)cc1C(F)(F)F [FEVIPIPRANT] , what is its reported Population Fragmented Nuclei (%)?
Reply | 20

Ask | Given the compound CN(C)C(=O)Cn1cc(-c2ccc(-c3cncc4ccccc34)cc2)cn1 , what is its reported Population Fragmented Nuclei (%)?
Reply | 25

Ask | Given the compound CCCOc1ccc2[nH]cc(C3=CCNCC3)c2n1.Cl , what is its reported Population Fragmented Nuclei (%)?
Reply | 25

Ask | Given the compound C[C@H](N)COC(=O)[C@@H](CCCCN)NC(=O)Cc1c(-c2ccc3ccccc3c2)[nH]c2c1ccc1ccccc12 , what is its reported Population Fragmented Nuclei (%)?
Reply | 19

Ask | Given the compound CC(C)(C)c1cc(NC(=O)Nc2ccc(-c3cn4c(n3)sc3cc(OCCN5CCOCC5)ccc34)cc2)no1 [QUIZARTINIB] , what is its reported Population Fragmented Nuclei (%)?
Reply | 34

Ask | Given the compound CN[C@@H](C)C(=O)N[C@H](C(=O)N1CCC[C@H]1C(=O)Nc1snnc1-c1ccccc1)C1CCCCC1 [GDC-0152] , what is its reported Population Fragmented Nuclei (%)?
Reply | 36

Ask | Given the compound NCCc1cn(S(=O)(=O)c2c(Cl)nc3sccn23)c2ccccc12.O=C(O)C(=O)O , what is its reported Population Fragmented Nuclei (%)?
Reply | 29

Ask | Given the compound CCCCCC(O)/C=C/[C@H]1C(=O)CC(O)C1C/C=C\CCCC(=O)O (some centres not stated) , what is its reported Population Fragmented Nuclei (%)?
Reply | 23
